Measured values drawn from patent US20190033318A1 for this set.

# target.under.test: T1, HIF-1α (construct not given) (UniProt Q16665 1-350, limits assumed)
# T1 construct: also called HIF-1 ELISA
# test.method.notes: HIF-1 ELISA, inhibition of HIF-1α/HIF-1β dimerisation
# Protocol: 25 μL of His-tagged HIF-α protein (either Trx-1α, Trx-2α, 1α PASB, or 2α PASB) at 0.1 μM in HIF assay buffer were added to individual wells of a Pierce Ni²⁺-coated 96-well plate (Thermo) in triplicate. The plate was rocked gently at room temperature for 1 hr, before washing with 3×200 μL assay buffer (5 min incubation per wash). […] Absorbance was read at 450 nm using a Tecan Infinite M200 Pro plate reader. Data were fitted and IC₅₀ values determined by non-linear regression using GraphPad Prism 6.
Non-standard residues stand in square brackets, D forms with d. Phe(4-CN) = N#Cc1ccc(C[C@H](N)C(=O)O)cc1; Phe(4-F) = N[C@@H](Cc1ccc(F)cc1)C(=O)O; Phe(4-Me) = Cc1ccc(C[C@H](N)C(=O)O)cc1
readout.kind: IC50 (µM)
Give just the numeric value; µM need not be written.

As a guide, the following entries are already answered.
cyclo(CRLLI[Phe(4-Me)]) (also called CRLLIX where X = 4-Me-F) [CRLLI(4-Me-F)]	11.9
cyclo(CRLLI[Phe(4-CN)]) (also called CRLLIX where X = 4-CN-F) [CRLLI(4-CN-F)]	44.2
cyclo(CRLLI[Phe(4-F)]) (also called CRLLIX where X = 4-F-F) [CRLLI(4-F-F)]	37.5

May I ask what IC50 has been recorded for CRLLIF (cyclic peptide (cyclo-, first amino acid joined to the last), One of the 4 cyclic peptide hits of the SICLOPPS screen; made by solid phase synthesis; also called CRLLIX where X = F) [cyclo-CRLLIF (SEQ ID NO 3)] ?
71.3
